Test system: Mycobacterium tuberculosis H37Rv
Test name: Inhibition of NDH-2 in Mycobacterium tuberculosis H37Rv inverted membrane vesicles over expressing ndh gene assessed as reduction in oxygen consumption at 50 uM by NADH oxygen consumption assay
Assay type: cell membranes
Assay conditions: Membrane vesicle
Result type: inhibition (%)
State just the number; it will be interpreted in %.

Recorded results for 5 molecules are shown here.
- CCCCCCCc1cc(O)c2ccccc2[n+]1[O-]: 29.2
- CN1CCCCC1CCN1c2ccc(Cl)cc2Sc2cc(Cl)ccc21.Cl (stereo unspecified): 59.3
- CN1CCCCC1CCN1c2c(Cl)cc(Cl)cc2Sc2cc(Cl)cc(Cl)c21.Cl (stereo unspecified): 74.2
- CN1CCCCC1CCN1c2ccccc2Sc2cc(Cl)ccc21.Cl (stereo unspecified): 12.5
- CN1CCCCC1CCN1c2ccc(Br)cc2Sc2cc(Br)ccc21.Cl (stereo unspecified): 84.8

Moving on to the next molecule.
# lookup: inhibition of `CN(C)CCCN1c2ccc(Br)cc2Sc2cc(Br)ccc21.Cl` 40.7

---

Measured on: 5-hydroxytryptamine receptor 7 (Homo sapiens, UniProt P34969)
Sequence (P34969 whole entry): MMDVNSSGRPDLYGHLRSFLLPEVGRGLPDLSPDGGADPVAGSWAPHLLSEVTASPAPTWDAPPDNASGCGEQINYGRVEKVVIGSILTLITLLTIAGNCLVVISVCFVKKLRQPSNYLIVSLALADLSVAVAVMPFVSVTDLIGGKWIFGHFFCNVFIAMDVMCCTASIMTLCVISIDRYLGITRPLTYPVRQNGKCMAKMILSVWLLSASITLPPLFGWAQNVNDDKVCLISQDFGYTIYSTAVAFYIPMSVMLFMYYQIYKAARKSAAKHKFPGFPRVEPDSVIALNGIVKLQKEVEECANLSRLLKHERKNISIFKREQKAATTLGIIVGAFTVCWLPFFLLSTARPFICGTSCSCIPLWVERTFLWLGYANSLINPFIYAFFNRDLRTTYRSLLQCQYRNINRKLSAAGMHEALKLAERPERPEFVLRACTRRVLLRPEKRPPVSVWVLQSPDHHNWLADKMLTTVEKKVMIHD
Result type: Ki
Hi, when you answer, please include the unit after the number. Thanks!

• CN1CCCCC1CCN1c2ccc(Br)cc2[Se]c2cc(Br)ccc21.Cl (centres undefined) = 2340 nM

# lookup: Ki of CSc1ccc2c(c1)N(CCC1CCCCN1C)c1ccccc1S2 (centres undefined) 181 nM

Also CN1CCCCC1CCN1c2c(Cl)cc(Cl)cc2Sc2cc(Cl)cc(Cl)c21.Cl (centres undefined) , if possible. 1000 nM

Also CN1CCCCC1CCN1c2ccc(Br)cc2Sc2cc(Br)ccc21.Cl (centres undefined) , if possible. 2150 nM

---

Tested on: Mycolicibacterium smegmatis
Test name: Inhibition of NDH-2 in wild type Mycobacterium smegmatis mc24517 inverted membrane vesicles assessed as reduction in oxygen consumption at 50 uM by NADH oxygen consumption assay
Assay type: cell membranes
Assay conditions: Membrane vesicle
Result type: inhibition (%)
State just the number; it will be interpreted in %.

Recorded results for 5 molecules are shown here.
* CN1CCCCC1CCN1c2ccc(Br)cc2Sc2cc(Br)ccc21.Cl (stereo unspecified) | 93.7
* CN1CCCCC1CCN1c2ccc(Cl)cc2Sc2cc(Cl)ccc21.Cl (stereo unspecified) | 85.4
* CN1CCCCC1CCN1c2c(Cl)cc(Cl)cc2Sc2cc(Cl)cc(Cl)c21.Cl (stereo unspecified) | 92.4
* CN(C)CCCN1c2ccc(Br)cc2Sc2cc(Br)ccc21.Cl | 69.4
* CCCCCCCc1cc(O)c2ccccc2[n+]1[O-] | 18.1

Moving on to the next molecule.
# lookup: inhibition of CN1CCCCC1CCN1c2ccccc2Sc2cc(Cl)ccc21.Cl (stereo unspecified) 47.5

---

In what follows, each item is paired with its Ki for 5-hydroxytryptamine receptor 2A (Homo sapiens, UniProt P28223).
State just the number; it will be interpreted in nM.

Recorded results for 2 molecules are shown here.
* CN1CCCCC1CCN1c2ccc(Br)cc2Sc2cc(Br)ccc21.Cl (stereo not drawn) | 1750
* CN1CCCCC1CCN1c2ccc(Br)cc2[Se]c2cc(Br)ccc21.Cl (stereo not drawn) | 1760

Moving on to the next molecule.
Tell me reported Ki for CN1CCCCC1CCN1c2c(Cl)cc(Cl)cc2Sc2cc(Cl)cc(Cl)c21.Cl (stereo not drawn) , tested with 5-hydroxytryptamine receptor 2A (Homo sapiens, UniProt P28223). 1240
